# tgt: anti-CD28 Fab (SEQ ID NOs: 202, 203)
# Sequence (VH, as listed by the source, chain 1 of 2): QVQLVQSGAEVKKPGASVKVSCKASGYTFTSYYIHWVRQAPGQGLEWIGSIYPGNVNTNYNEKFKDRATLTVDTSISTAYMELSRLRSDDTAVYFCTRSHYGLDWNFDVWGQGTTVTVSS
# Sequence (VL, as listed by the source, chain 2 of 2): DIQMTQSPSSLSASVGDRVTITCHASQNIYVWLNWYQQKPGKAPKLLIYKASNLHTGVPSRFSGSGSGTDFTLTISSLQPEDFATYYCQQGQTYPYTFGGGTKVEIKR
# protocolSummary: phage binding ELISA; biotinylated anti-CD28 Fab captured on neutravidin plate, clonal phage supernatant, anti-M13-HRP detection;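 note: before crude clonal phage supernatants were added, wells were preincubated with CD28 antigen in blocking buffer or with blocking buffer only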
measuredAttribute: Anti-CD28 Fab (SEQ ID NOs: 202, 203) signal

binder="TCAAGATWVWPTCF [Phage-1228]" measurement=0.92
binder="TCSAGAMYSWPLCI [Phage-1230]" measurement=0.91
binder="QCAAGFSYTWPECY [Phage-1231]" measurement=0.9
binder="TCSAGAMYNWPECF [Phage-1229]" measurement=0.92
